Item-by-item account of log10 MIC
Tested on: Staphylococcus aureus
Experiment: Antibacterial activity against methicillin-resistant Staphylococcus aureus clinical isolate 12 measured after 18 hrs by CLSI based broth microdilution method
Type: functional
Log scale reminder: MIC in µg/mL, then log10 taken.

Sample answers from the record:
CCCNC(=O)C[N+](C)(C)CCCOc1ccc2ccc(=O)oc2c1CC=C(C)C.[Br-]    1.81
CCCCNC(=O)C[N+](C)(C)CCCCCOc1ccc2ccc(=O)oc2c1CC=C(C)C.[Br-]    1.20
CCCCNC(=O)C[N+](C)(C)CCCCOc1ccc2ccc(=O)oc2c1CC=C(C)C.[Br-]    1.51
COc1ccc2ccc(=O)oc2c1CC=C(C)C [OSTHOLE]    1.81
CCCCCCNC(=O)C[N+](C)(C)CCCOc1ccc2ccc(=O)oc2c1CC=C(C)C.[Br-]    0.90
CC(C)=CCc1c(OCCC[N+](C)(C)CC(=O)N(C(C)C)C(C)C)ccc2ccc(=O)oc12.[Br-]    1.20
CCCCNC(=O)C[N+](C)(C)CCCOc1ccc2ccc(=O)oc2c1CC=C(C)C.[Br-]    1.81
CCCNC(=O)C[N+](C)(C)CCCCOc1ccc2ccc(=O)oc2c1CC=C(C)C.[Br-]    1.81

Entry under test: CCCN(CCC)C(=O)C[N+](C)(C)CCCCCOc1ccc2ccc(=O)oc2c1CC=C(C)C.[Br-] . Its log10 MIC was 1.20

Entry under test: CCNC(=O)C[N+](C)(C)CCCCOc1ccc2ccc(=O)oc2c1CC=C(C)C.[Br-] . Its log10 MIC was 2.11

Entry under test: CCCCN(CCCC)C(=O)C[N+](C)(C)CCCCOc1ccc2ccc(=O)oc2c1CC=C(C)C.[Br-] . Its log10 MIC was 0.90

Entry under test: CCCCCNC(=O)C[N+](C)(C)CCCOc1ccc2ccc(=O)oc2c1CC=C(C)C.[Br-] . Its log10 MIC was 1.20

====

Tested on: Staphylococcus aureus
Experiment: Antibacterial activity against Staphylococcus aureus ATCC 29213 measured after 18 hrs by CLSI based broth microdilution method
Format: functional
parameter-measured: MIC (µg/mL)
API: value field is a number in µg/mL; no unit string.

Entry under test: CC(C)=CCc1c(OCCC[N+](C)(C)CC(=O)N(CC(C)C)CC(C)C)ccc2ccc(=O)oc12.[Br-] . Its MIC was 4

Entry under test: CCCCN(CCCC)C(=O)C[N+](C)(C)CCCOc1ccc2ccc(=O)oc2c1CC=C(C)C.[Br-] . Its MIC was 4

Entry under test: CCCNC(=O)C[N+](C)(C)CCCCCOc1ccc2ccc(=O)oc2c1CC=C(C)C.[Br-] . Its MIC was 32

Entry under test: CCCNC(=O)C[N+](C)(C)CCCCOc1ccc2ccc(=O)oc2c1CC=C(C)C.[Br-] . Its MIC was 64

Entry under test: CCCCCCNC(=O)C[N+](C)(C)CCCCOc1ccc2ccc(=O)oc2c1CC=C(C)C.[Br-] . Its MIC was 4

Entry under test: CCCCCCNC(=O)C[N+](C)(C)CCCOc1ccc2ccc(=O)oc2c1CC=C(C)C.[Br-] . Its MIC was 4

Entry under test: CC(C)=CCc1c(OCCCC[N+](C)(C)CC(=O)N(CC(C)C)CC(C)C)ccc2ccc(=O)oc12.[Br-] . Its MIC was 4

====

Tested on: Staphylococcus aureus
Experiment: Antibacterial activity against methicillin-resistant Staphylococcus aureus clinical isolate 20 measured after 18 hrs by CLSI based broth microdilution method
Type: functional
Item-by-item account of MIC
API: value field is a number in µg/mL; no unit string.

Sample answers from the record:
CCCCCCNC(=O)C[N+](C)(C)CCCCCOc1ccc2ccc(=O)oc2c1CC=C(C)C.[Br-]    2
COc1ccc2ccc(=O)oc2c1CC=C(C)C    64

Result for CC(C)=CCc1c(OCCCCC[N+](C)(C)CC(=O)N(C(C)C)C(C)C)ccc2ccc(=O)oc12.[Br-] , tested on Staphylococcus aureus, MIC: 4

====

Test system: Staphylococcus aureus
Assay: Antibacterial activity against methicillin-resistant Staphylococcus aureus clinical isolate 16 measured after 18 hrs by CLSI based broth microdilution method
Format: functional
Item-by-item account of MIC

Sample answers from the record:
CCCN(CCC)C(=O)C[N+](C)(C)CCCCCOc1ccc2ccc(=O)oc2c1CC=C(C)C.[Br-]    8 µg/mL
CC(C)=CCc1c(OCCC[N+](C)(C)CC(=O)N(CC(C)C)CC(C)C)ccc2ccc(=O)oc12.[Br-]    4 µg/mL
CCCCCCNC(=O)C[N+](C)(C)CCCCOc1ccc2ccc(=O)oc2c1CC=C(C)C.[Br-]    2 µg/mL
CCCNC(=O)C[N+](C)(C)CCCOc1ccc2ccc(=O)oc2c1CC=C(C)C.[Br-]    128 µg/mL
CC(C)=CCc1c(OCCC[N+](C)(C)CC(=O)N(C(C)C)C(C)C)ccc2ccc(=O)oc12.[Br-]    16 µg/mL

Entry under test: CCCN(CCC)C(=O)C[N+](C)(C)CCCCOc1ccc2ccc(=O)oc2c1CC=C(C)C.[Br-] . Its MIC was 16 µg/mL

====

System: Staphylococcus aureus
Assay: Antibacterial activity against methicillin-resistant Staphylococcus aureus clinical isolate 20 measured after 18 hrs by CLSI based broth microdilution method
Type: functional
parameter-measured: MIC (µg/mL)
API: value field is a number in µg/mL; no unit string.

Sample answers from the record:
CCN(CC)C(=O)C[N+](C)(C)CCCCCOc1ccc2ccc(=O)oc2c1CC=C(C)C.[Br-]    32
CCCCCNC(=O)C[N+](C)(C)CCCCOc1ccc2ccc(=O)oc2c1CC=C(C)C.[Br-]    8
CCCCNC(=O)C[N+](C)(C)CCCCCOc1ccc2ccc(=O)oc2c1CC=C(C)C.[Br-]    8
CCCCN(CCCC)C(=O)C[N+](C)(C)CCCOc1ccc2ccc(=O)oc2c1CC=C(C)C.[Br-]    4
CCCN(CCC)C(=O)C[N+](C)(C)CCCOc1ccc2ccc(=O)oc2c1CC=C(C)C.[Br-]    32
CC(C)=CCc1c(OCCCC[N+](C)(C)CC(=O)N(CC(C)C)CC(C)C)ccc2ccc(=O)oc12.[Br-]    2
CCCNC(=O)C[N+](C)(C)CCCCOc1ccc2ccc(=O)oc2c1CC=C(C)C.[Br-]    64
CCCCNC(=O)C[N+](C)(C)CCCOc1ccc2ccc(=O)oc2c1CC=C(C)C.[Br-]    64

Result for CC(C)=CCc1c(OCCC[N+](C)(C)CC(=O)N(C(C)C)C(C)C)ccc2ccc(=O)oc12.[Br-] , tested on Staphylococcus aureus, MIC: 32

Result for CCCNC(=O)C[N+](C)(C)CCCCCOc1ccc2ccc(=O)oc2c1CC=C(C)C.[Br-] , tested on Staphylococcus aureus, MIC: 32

====

System: Staphylococcus aureus
Assay: Antibacterial activity against methicillin-resistant Staphylococcus aureus clinical isolate 13 measured after 18 hrs by CLSI based broth microdilution method
Assay type: functional
parameter-measured: MIC (µg/mL)
API: value field is a number in µg/mL; no unit string.

Sample answers from the record:
CCCCCCNC(=O)C[N+](C)(C)CCCOc1ccc2ccc(=O)oc2c1CC=C(C)C.[Br-]    8
CCN(CC)C(=O)C[N+](C)(C)CCCCCOc1ccc2ccc(=O)oc2c1CC=C(C)C.[Br-]    32
CCNC(=O)C[N+](C)(C)CCCOc1ccc2ccc(=O)oc2c1CC=C(C)C.[Br-]    128

Entry under test: CCCN(CCC)C(=O)C[N+](C)(C)CCCOc1ccc2ccc(=O)oc2c1CC=C(C)C.[Br-] . Its MIC was 32

Entry under test: CCCCCCNC(=O)C[N+](C)(C)CCCCOc1ccc2ccc(=O)oc2c1CC=C(C)C.[Br-] . Its MIC was 4

====

Item-by-item account of selectivity ratio
Assay: Selectivity index, ratio of HC50 for hemolytic activity in sheep erythrocyte assessed as hemolysis to MIC for antibacterial activity against Staphylococcus aureus ATCC 29213
Type: toxicity
Conditions: sheep erythrocytes, read-out: Selectivity Index
Form field (numeric): enter value without unit.

Sample answers from the record:
CCCNC(=O)C[N+](C)(C)CCCCCOc1ccc2ccc(=O)oc2c1CC=C(C)C.[Br-]    35.8
CCCCN(CCCC)C(=O)C[N+](C)(C)CCCOc1ccc2ccc(=O)oc2c1CC=C(C)C.[Br-]    272
CCN(CC)C(=O)C[N+](C)(C)CCCCOc1ccc2ccc(=O)oc2c1CC=C(C)C.[Br-]    19

Moving on to another compound below.
Entry under test: CC(C)=CCc1c(OCCCCC[N+](C)(C)CC(=O)N(CC(C)C)CC(C)C)ccc2ccc(=O)oc12.[Br-] . Its selectivity ratio was 480

====

Item-by-item account of log10(MIC)
Tested on: Staphylococcus aureus
Test: Antibacterial activity against methicillin-resistant Staphylococcus aureus clinical isolate 12 measured after 18 hrs by CLSI based broth microdilution method
Assay type: functional
Log scale reminder: MIC in µg/mL, then log10 taken.

CCCN(CCC)C(=O)C[N+](C)(C)CCCCOc1ccc2ccc(=O)oc2c1CC=C(C)C.[Br-]    1.51
CCNC(=O)C[N+](C)(C)CCCCCOc1ccc2ccc(=O)oc2c1CC=C(C)C.[Br-]    1.81
CCCCCNC(=O)C[N+](C)(C)CCCCOc1ccc2ccc(=O)oc2c1CC=C(C)C.[Br-]    1.20
CC(C)=CCc1c(OCCCC[N+](C)(C)CC(=O)N(C(C)C)C(C)C)ccc2ccc(=O)oc12.[Br-]    1.51
CC(C)=CCc1c(OCCCC[N+](C)(C)CC(=O)N(CC(C)C)CC(C)C)ccc2ccc(=O)oc12.[Br-]    0.60

Moving on to another compound below.
Entry under test: CCCCN(CCCC)C(=O)C[N+](C)(C)CCCCCOc1ccc2ccc(=O)oc2c1CC=C(C)C.[Br-] . Its log10(MIC) was 0.30
